Attribution: patent US4738971A

Test system: delayed hypersensitivity reaction (adjuvant arthritis, Mycobacterium butyricum)
Experiment notes: adjuvant arthritis test in rats
Type: in vivo, rat (male Lister hooded)
Study conditions: Rattus norvegicus, po, 336 h; 10 mg/kg p.o., once daily day -4 to day 14, vs control; preliminary; read-out: Increase of the volume of the left foot
Overview of reported change in vivo at 10 mg/kg across a group of molecules:
Report the value in % with no unit label.

>>> print(df.to_string())
                                   molecule  display_unit  observed_result
0  CN(C(=O)c1c(O)c2ccccc2n(C)c1=O)c1ccc(Cl)cc1             %               51
1  COc1ccc(N(C)C(=O)c2c(O)c3ccccc3n(C)c2=O)cc1             %               41
2   CN(C(=O)c1c(O)c2ccccc2n(C)c1=O)c1ccccc1             %               48

Switching to the query record.
Q. Can you share its change in vivo at 10 mg/kg? I mean this molecule: c1ccc([C@H]2CN3CCSC3=N2)cc1 [Levamisole, levamisole, reference compound]
A. 12
